assay: Brain penetration and plasma/brain pharmacokinetics in combination with Temodar or Lynparza; details: mouse, plasma, intravenous, Plasma Conc, LMP400 10 mg/kg IV + Temador 125 mg/kg PO, 0.5 h
ASSAY READOUT: concentration at 0.5 h (nM)
Give bare numbers, in nM.

// query concentration at 0.5 h value for entry COc1cc2c3c(n(CCCN4CCOCC4)c(=O)c2cc1OC)-c1cc2c(cc1C3=O)OCO2
1940

====

assay: Brain penetration and plasma/brain pharmacokinetics in combination with Temodar or Lynparza; settings: mouse, brain, oral, Brain Conc, Temador 125 mg/kg PO + LMP744 20 mg/kg IV, 1 h
ASSAY READOUT: concentration at 1 h (µM)
Numbers only, in µM.

// query concentration at 1 h value for entry Cn1nnc2c(C(N)=O)ncn2c1=O
154

====

Consider the following molecules; for each one, report its GI50.
tested on: KMS-27; test: MTS GI50, Myc-dependent panel; type: cell-based; conditions: KMS-27, 72 h; read-out: GI50
Numbers only, in nM.

# example entries with known answers
{"columns": ["MOLECULE", "ASSAY READOUT", "DATA VALUE"],
 "data": [
  ["CCNCCCn1c2c(c3cc(OC)c(OC)cc3c1=O)C(=O)c1cc3c(nc1-2)OCO3 [G104]", "GI50", 141],
  ["COc1cc2c3c(n(CCCn4ccnc4)c(=O)c2cc1OC)-c1nc2c(cc1C3=O)OCO2 [G102]", "GI50", 238],
  ["COc1cc2c3c(n(CCCNCCO)c(=O)c2cc1OC)-c1nc2c(cc1C3=O)OCO2 [G105]", "GI50", 141]
]}

Lab note: each molecule below needs its GI50 filled in.
1. COc1cc2c3c(n(CCCN4CCOCC4)c(=O)c2cc1OC)-c1cc2c(cc1C3=O)OCO2 [LMP400, indotecan]
2. COc1cc2c3c(n(CCCNCCO)c(=O)c2cc1OC)-c1cc2c(cc1C3=O)OCO2 [LMP744]

1: 543; 2: 190

====

tested on: Caco-2 cells; assay: Caco-2 permeability; format: in vitro ADME; conditions: Caco-2, 5 μM, 2 h
ASSAY READOUT: Papp (A→B)

# example entries with known answers
{"columns": ["COMPOUND", "Papp (A→B)"],
 "data": [
  ["COc1cc2nc(N3CCN(C(=O)c4ccco4)CC3)nc(N)c2cc1OC [Prazosin]", "9.28 10^−6, cm/s"],
  ["CCNCCCn1c2c(c3cc(OC)c(OC)cc3c1=O)C(=O)c1cc3c(nc1-2)OCO3 [G104]", "1.69 10^−6, cm/s"],
  ["COc1cc2c3c(n(CCCNC(C)C)c(=O)c2cc1OC)-c1nc2c(cc1C3=O)OCO2 [G103]", "1.55 10^−6, cm/s"],
  ["COc1cc2c3c(n(CCCNCCO)c(=O)c2cc1OC)-c1nc2c(cc1C3=O)OCO2 [G105]", "2.39 10^−6, cm/s"],
  ["C[C@H]1O[C@@H](O[C@H]2[C@@H](O)C[C@H](O[C@H]3[C@@H](O)C[C@H](O[C@H]4CC[C@@]5(C)[C@H](CC[C@@H]6[C@@H]5C[C@@H](O)[C@]5(C)[C@@H](C7=CC(=O)OC7)CC[C@]65O)C4)O[C@@H]3C)O[C@@H]2C)C[C@H](O)[C@@H]1O [Digoxin]", "0.74 10^−6, cm/s"]
]}

Next compound, please.
// query Papp (A→B) value for entry CC(C)NCC(O)COc1cccc2ccccc12 (stereo not drawn) [Propranolol]
25.34 10^−6, cm/s

====

experiment: Brain penetration and plasma/brain pharmacokinetics in combination with Temodar or Lynparza; conditions: mouse, brain, intravenous, Brain Conc, LMP400 10 mg/kg IV + Temador 125 mg/kg PO, 2 h
ASSAY READOUT: concentration at 2 h (µM)
Give bare numbers, in µM.

// query concentration at 2 h value for entry COc1cc2c3c(n(CCCN4CCOCC4)c(=O)c2cc1OC)-c1cc2c(cc1C3=O)OCO2
5.29

====

assay: Pharmacokinetics IV and PO in male CD1 mice; settings: male, CD1, mouse, plasma, po, 10 mg/kg
ASSAY READOUT: half-life
# do not omit the unit; it follows the number

// query half-life value for entry COc1cc2c3c(n(CCCNCCO)c(=O)c2cc1OC)-c1nc2c(cc1C3=O)OCO2
5.2 h

====

system: DU-145 (Prostate); assay: NCI-60 cytotoxicity assay; format: cell-based, human; details: Prostate DU-145, 48 h; read-out: Cytotoxicity GI50
ASSAY READOUT: GI50 (nM)
Answers are plain numbers, in nM.

Kindly state the measured GI50 obtained for COc1cc2c3c(n(CCCNCCO)c(=O)c2cc1OC)-c1nc2c(cc1C3=O)OCO2 with DU-145 (Prostate).
2710

====

experiment: Brain penetration and plasma/brain pharmacokinetics in combination with Temodar or Lynparza; details: mouse, plasma, iv, 10 mg/kg, Vss—obs, plasma, LMP400 10 mg/kg IV + Temador 125 mg/kg PO
ASSAY READOUT: Vd (L/kg)
Give bare numbers, in L/kg.

// query Vd value for entry COc1cc2c3c(n(CCCN4CCOCC4)c(=O)c2cc1OC)-c1cc2c(cc1C3=O)OCO2
11.9

====

tested on: Caco-2 cells; assay: Caco-2 permeability; assay type: in vitro ADME; conditions: Caco-2
Consider the following compounds; for each one, report its Efflux Ratio.
Give bare numbers.

{"columns": ["COMPOUND", "ASSAY READOUT", "DATA VALUE"],
 "data": [
  ["COc1cc2c3c(n(CCCNCCO)c(=O)c2cc1OC)-c1nc2c(cc1C3=O)OCO2", "Efflux Ratio", 7.60]
]}

Lab note: each compound below needs its Efflux Ratio filled in.
1. CCNCCCn1c2c(c3cc(OC)c(OC)cc3c1=O)C(=O)c1cc3c(nc1-2)OCO3
2. C[C@H]1O[C@@H](O[C@H]2[C@@H](O)C[C@H](O[C@H]3[C@@H](O)C[C@H](O[C@H]4CC[C@@]5(C)[C@H](CC[C@@H]6[C@@H]5C[C@@H](O)[C@]5(C)[C@@H](C7=CC(=O)OC7)CC[C@]65O)C4)O[C@@H]3C)O[C@@H]2C)C[C@H](O)[C@@H]1O
3. COc1cc2nc(N3CCN(C(=O)c4ccco4)CC3)nc(N)c2cc1OC
4. CC(C)NCC(O)COc1cccc2ccccc12 (centres unmarked)

[9.51, 25.25, 3.39, 0.70]

====

assay: Brain penetration and plasma/brain pharmacokinetics in combination with Temodar or Lynparza; conditions: mouse, brain, intravenous, Brain Conc, LMP400 10 mg/kg IV + Temador 125 mg/kg PO, 0.25 h
ASSAY READOUT: concentration at 0.25 h (µM)
Answers are plain numbers, in µM.

// query concentration at 0.25 h value for entry COc1cc2c3c(n(CCCN4CCOCC4)c(=O)c2cc1OC)-c1cc2c(cc1C3=O)OCO2
13.8

====

system: RD-ES; assay: MTS GI50, Myc-dependent panel; assay type: cell-based; settings: 72 h, read-out: GI50
Consider the following compounds; for each one, report its GI50.

# example entries with known answers
{"columns": ["COMPOUND", "GI50"],
 "data": [
  ["COc1cc2c3c(n(CCCNCCO)c(=O)c2cc1OC)-c1nc2c(cc1C3=O)OCO2 [G105]", "22 nM"],
  ["COc1cc2c3c(n(CCCn4ccnc4)c(=O)c2cc1OC)-c1cc2c(cc1C3=O)OCO2 [LMP776, indimitecan]", "227 nM"],
  ["CCNCCCn1c2c(c3cc(OC)c(OC)cc3c1=O)C(=O)c1cc3c(nc1-2)OCO3 [G104]", "20 nM"]
]}

Next compound, please.
// query GI50 value for entry COc1cc2c3c(n(CCCNCCO)c(=O)c2cc1OC)-c1cc2c(cc1C3=O)OCO2 [LMP744]
24 nM

====

assay: Pharmacokinetics IV and PO in male CD1 mice; conditions: male, CD1, mouse, plasma, iv, 1 mg/kg
ASSAY READOUT: Vd (L/kg)
Give bare numbers, in L/kg.

// query Vd value for entry COc1cc2c3c(n(CCCNCCO)c(=O)c2cc1OC)-c1nc2c(cc1C3=O)OCO2
9.62

====

tested on: Caco-2 cells; test: Caco-2 permeability; type: in vitro ADME; settings: Caco-2, 5 μM, 2 h
ASSAY READOUT: Papp (B→A)

{"columns": ["MOLECULE", "ASSAYED TARGET", "DATA VALUE"],
 "data": [
  ["C[C@H]1O[C@@H](O[C@H]2[C@@H](O)C[C@H](O[C@H]3[C@@H](O)C[C@H](O[C@H]4CC[C@@]5(C)[C@H](CC[C@@H]6[C@@H]5C[C@@H](O)[C@]5(C)[C@@H](C7=CC(=O)OC7)CC[C@]65O)C4)O[C@@H]3C)O[C@@H]2C)C[C@H](O)[C@@H]1O", "Caco-2 cells", "18.71 10^−6, cm/s"],
  ["COc1cc2nc(N3CCN(C(=O)c4ccco4)CC3)nc(N)c2cc1OC", "Caco-2 cells", "31.47 10^−6, cm/s"]
]}

Lab note: each molecule below needs its Papp (B→A) filled in.
1. COc1cc2c3c(n(CCCNC(C)C)c(=O)c2cc1OC)-c1nc2c(cc1C3=O)OCO2
2. COc1cc2c3c(n(CCCNCCO)c(=O)c2cc1OC)-c1nc2c(cc1C3=O)OCO2
3. CC(C)NCC(O)COc1cccc2ccccc12 (stereo not drawn)
4. CCNCCCn1c2c(c3cc(OC)c(OC)cc3c1=O)C(=O)c1cc3c(nc1-2)OCO3

8.95 10^−6, cm/s
18.16 10^−6, cm/s
17.63 10^−6, cm/s
16.04 10^−6, cm/s
